assay: Apparent oral clearance in healthy human at 50 mg, po administered as single dose coadministered with 100 mg of ritonavir; format: ADME, organism-based; settings: in vivo
Parameter measured: CL/F (mL/min)
Note: unit mL/min is implicit; provide only the numeric part.

Give the measured CL/F of CCN1c2ncc(CCOc3cc[n+]([O-])c4ccccc34)cc2C(=O)N(C)c2cccnc21 .
131

====

assay: AUC (0 to infinity) in healthy human at 62.5 mg, po administered as single dose coadministered with 100 mg of ritonavir; format: ADME, organism-based; parameters: dose 62.5 mg, time infinity, route oral; details: plasma
Parameter measured: AUC(0-inf) (ng·h/mL)
Note: unit ng·h/mL is implicit; provide only the numeric part.

Give the measured AUC(0-inf) of CCN1c2ncc(CCOc3cc[n+]([O-])c4ccccc34)cc2C(=O)N(C)c2cccnc21 [BILR 355] .
7630

Data origin: ChEMBL document CHEMBL1629563
